- target system: MAGI2_6, Q86UL8
- Sequence (Q86UL8 1141-1229): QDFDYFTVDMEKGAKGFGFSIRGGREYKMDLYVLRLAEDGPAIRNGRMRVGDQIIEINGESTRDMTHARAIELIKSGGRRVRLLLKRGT
- test description: holdup assay
- Set-up: key: below the threshold = too weak to quantify, mostly under pKd 3.1 to 4
- stated conditions: plain residues with an end cap or a label only (N-terminal biotin on a linker: ado-ado)
experimental readout: pKd

QRPYRRGSEI [KCNJ18, B7U540] ... below the threshold
ARGPPRESEV [FAM110D, Q8TAY7] ... 4.3
PSVGSKKTVL [REELD1, A0A1B0GV85] ... below the threshold
VLYPREGTEV [FOXI1, Q12951] ... 4.46
GIKKITSTAL [RPS6KA3, P51812] ... 4.08

// QKAPTKEFYA [SDC2, P34741] : pKd value = below the threshold

Summary for this binder, EDLEDEWEVI [TECPR2, O15040] : pKd is 3.56

Reported pKd ( QSYPSKHDYV [CLDN18, P56856] ) = 3.82

Ref: paper PMC9482650
